biological target: CXCR4 (Homo sapiens (Human), UniProt P61073); assay: Functional calcium mobilization assay (SDF-1α induced); assay type: cell-based; conditions: CEM cells, SDF-1α challenge at EC80-EC90; read-out: Ca Flux IC50
Sequence (P61073 whole entry): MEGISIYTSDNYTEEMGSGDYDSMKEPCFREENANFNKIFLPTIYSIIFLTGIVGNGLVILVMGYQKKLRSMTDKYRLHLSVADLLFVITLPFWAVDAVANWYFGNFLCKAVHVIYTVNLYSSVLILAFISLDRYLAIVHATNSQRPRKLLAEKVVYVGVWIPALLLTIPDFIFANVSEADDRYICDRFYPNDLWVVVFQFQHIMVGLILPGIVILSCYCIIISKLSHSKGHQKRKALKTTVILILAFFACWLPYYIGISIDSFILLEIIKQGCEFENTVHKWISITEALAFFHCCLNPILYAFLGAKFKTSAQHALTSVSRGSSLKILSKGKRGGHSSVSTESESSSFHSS
reported endpoint: log10 IC50 (log10 of the value in nM)
Scale: log10; quantity: IC50; unit before log: nM

Query block: Requested field: log10 IC50. Item: c1cnc2c(c1)CCC[C@@H]2N(CCCN1CCNCC1)Cc1nccc2c3ccccc3n(CC3CC3)c12
Result block: 1.15

Query block: Requested field: log10 IC50. Item: O=C(Cn1c2ccccc2c2ccnc(CN(CCCCNCc3ccccn3)[C@H]3CCCc4cccnc43)c21)N1CCOCC1
Result block: 3.94

Query block: Requested field: log10 IC50. Item: NCCCn1c2ccccc2c2ccnc(CN[C@H]3CCCc4cccnc43)c21
Result block: 3.95

Query block: Requested field: log10 IC50. Item: O=C(Cn1c2ccccc2c2ccnc(CN(CCCN3CCNCC3)[C@H]3CCCc4cccnc43)c21)N1CCCCC1
Result block: 2.61

Query block: Requested field: log10 IC50. Item: C#CCn1c2ccccc2c2ccnc(CN(CCCCN)[C@H]3CCCc4cccnc43)c21
Result block: 0.95

Query block: Requested field: log10 IC50. Item: Cn1c2ccccc2c2cc(CN(CCCCN)[C@H]3CCCc4cccnc43)ncc21
Result block: 1.76

Query block: Requested field: log10 IC50. Item: CC(C)(C)OC(=O)Cn1c2ccccc2c2cc(CN(CCCCN)[C@H]3CCCc4cccnc43)ncc21
Result block: 2.98

Query block: Requested field: log10 IC50. Item: NCCCCN(Cc1nccc2c3ccccc3n(CC(=O)N3CCNCC3)c12)[C@H]1CCCc2cccnc21
Result block: 2.82

Query block: Requested field: log10 IC50. Item: NCCCCN(Cc1nccc2c3ccccc3n(CC3CC3)c12)[C@H]1CCCc2cccnc21
Result block: 0.60

Query block: Requested field: log10 IC50. Item: c1ccc(Cn2c3ccccc3c3ccnc(CN(CCCN4CCNCC4)[C@H]4CCCc5cccnc54)c32)nc1
Result block: 2.25

Query block: Requested field: log10 IC50. Item: CN1CCN(CCCN(Cc2nccc3c4ccccc4n(CC(=O)N4CCOCC4)c23)[C@H]2CCCc3cccnc32)CC1
Result block: 2.80

Query block: Requested field: log10 IC50. Item: CS(=O)(=O)N1CCN(CCN(Cc2nccc3c2[nH]c2ccccc23)C2CCCc3cccnc32)CC1 (stereo not drawn)
Result block: 4.00

Query block: Requested field: log10 IC50. Item: Cn1c(CN(CCCCN)C2CCCc3cccnc32)nnc1-c1ccccc1 (stereo not drawn)
Result block: 3.51

Query block: Requested field: log10 IC50. Item: Cn1c2ccccc2c2ccnc(CN(CCCCN)[C@H]3CCCc4cccnc43)c21
Result block: 1.34

Query block: Requested field: log10 IC50. Item: CC(C)CN(Cc1nccc2c3ccccc3n(CCCN3C(=O)c4ccccc4C3=O)c12)[C@H]1CCCc2cccnc21
Result block: 3.82

Query block: Requested field: log10 IC50. Item: CN(Cc1nccc2c3ccccc3n(CCCN3C(=O)c4ccccc4C3=O)c12)[C@H]1CCCc2cccnc21
Result block: 2.34

Query block: Requested field: log10 IC50. Item: CCNCCCCN(Cc1nccc2c1[nH]c1ccccc12)[C@H]1CCCc2cccnc21
Result block: 2.84

Query block: Requested field: log10 IC50. Item: NCCCCN(Cc1nccc2c3ccccc3n(CC(=O)O)c12)[C@H]1CCCc2cccnc21 [drawing 709]
Result block: 1.34

###

target: CXCR4 (Homo sapiens (Human)); test: Functional calcium mobilization assay (SDF-1α induced); format: cell-based; settings: CEM cells, SDF-1α challenge at EC80-EC90; read-out: Ca Flux IC50
Consider the following molecules; for each one, report its pIC50.
Answer as the number alone; pIC50 is minus log10 of concentration in mol/L.

Query block: Requested field: pIC50. Item: O=C1CN(CCCN(Cc2nccc3c4ccccc4n(CC(=O)N4CCOCC4)c23)[C@H]2CCCc3cccnc32)CCN1
Result block: 5.06

Query block: Requested field: pIC50. Item: CN(Cc1nccc2c3ccccc3n(CCN)c12)[C@H]1CCCc2cccnc21
Result block: 6.85

Query block: Requested field: pIC50. Item: NCCCCN(Cc1cc2c3ccccc3n(CC(=O)O)c2cn1)[C@H]1CCCc2cccnc21
Result block: 6.06

Query block: Requested field: pIC50. Item: CN(Cc1nccc2c3ccccc3n(CCCN)c12)[C@H]1CCCc2cccnc21
Result block: 5.98

Query block: Requested field: pIC50. Item: O=C(O)Cn1c2ccccc2c2ccnc(CN(CCCN3CCNCC3)[C@H]3CCCc4cccnc43)c21 [drawing 753]
Result block: 6.87

###

molecular target: CXCR4 (Homo sapiens (Human), UniProt P61073); assay: Functional calcium mobilization assay (SDF-1α induced); format: cell-based; conditions: CEM cells, SDF-1α challenge at EC80-EC90; read-out: Ca Flux IC50
Consider the following compounds; for each one, report its IC50.

Query block: Requested field: IC50. Item: O=C1CNCCN1CCCn1c2ccccc2c2ccnc(CN(CCCN3CCNCC3)[C@H]3CCCc4cccnc43)c21
Result block: 44 nM

Query block: Requested field: IC50. Item: CC(C)(C)OC(=O)Cn1c2ccccc2c2ccnc(CN(CCCCN)[C@H]3CCCc4cccnc43)c21
Result block: 1 nM

Query block: Requested field: IC50. Item: O=C(Cn1c2ccccc2c2ccnc(CN(CCCCNCc3ccncc3)[C@H]3CCCc4cccnc43)c21)N1CCOCC1
Result block: 2830 nM

Query block: Requested field: IC50. Item: O=C(Cn1c2ccccc2c2ccnc(CN(CCCC3CCNCC3)[C@H]3CCCc4cccnc43)c21)N1CCOCC1
Result block: 124 nM

Query block: Requested field: IC50. Item: NCCCCN(Cc1cc2c(cn1)[nH]c1ccccc12)[C@@H]1CCCc2cccnc21
Result block: 1180 nM

Query block: Requested field: IC50. Item: Cc1cccnc1CN(CCCCN)Cc1nccc2c3ccccc3n(CC(=O)N3CCOCC3)c12
Result block: 583 nM

Query block: Requested field: IC50. Item: c1ccc(Cn2c3ccccc3c3ccnc(CN[C@H]4CCCc5cccnc54)c32)nc1
Result block: 8390 nM

Query block: Requested field: IC50. Item: NCCCCN(Cc1nccc2c1[nH]c1cc(F)ccc12)C1CCCc2cccnc21 (stereo not shown)
Result block: 565 nM

Query block: Requested field: IC50. Item: O=C1c2ccccc2C(=O)N1CCCn1c2ccccc2c2ccnc(CN(CCCN3CCNCC3)[C@H]3CCCc4cccnc43)c21
Result block: 44 nM

Query block: Requested field: IC50. Item: NCCCCN(Cc1ccccn1)Cc1nccc2c1[nH]c1ccccc12
Result block: 1970 nM

Query block: Requested field: IC50. Item: CN(Cc1nccc2c3ccccc3n(CCN3C(=O)c4ccccc4C3=O)c12)[C@H]1CCCc2cccnc21
Result block: 329 nM

Query block: Requested field: IC50. Item: NCCCn1c2ccccc2c2ccnc(CN(CCCN3CCNC(=O)C3)[C@H]3CCCc4cccnc43)c21
Result block: 30 nM

Query block: Requested field: IC50. Item: N[C@H]1CC[C@@H](CN(Cc2nccc3c4ccccc4n(CC(=O)N4CCOCC4)c23)[C@H]2CCCc3cccnc32)CC1
Result block: 1260 nM

Query block: Requested field: IC50. Item: O=C(Cn1c2ccccc2c2ccnc(CN(CCCN3CCNCC3)[C@H]3CCCc4cccnc43)c21)NC1CCOCC1
Result block: 26 nM

Query block: Requested field: IC50. Item: NCCCCN(Cc1nccc2c3ccccc3n(Cc3ccncc3)c12)[C@H]1CCCc2cccnc21
Result block: 120 nM

Query block: Requested field: IC50. Item: C[C@@H]1CN(C(=O)Cn2c3ccccc3c3ccnc(CN(CCCCN)[C@H]4CCCc5cccnc54)c32)C[C@H](C)O1 [drawing 744]
Result block: 123 nM

Query block: Requested field: IC50. Item: NCCCCN(Cc1nccc2c3ccccc3n(CCO)c12)[C@H]1CCCc2cccnc21
Result block: 11 nM

Query block: Requested field: IC50. Item: NCCCCN(Cc1nccc2c3ccccc3n(CCCN3CCNCC3)c12)[C@H]1CCCc2cccnc21 [drawing 723]
Result block: 15 nM

Query block: Requested field: IC50. Item: O=C(Cn1c2ccccc2c2ccnc(CN(CCCN3CCNCC3)[C@H]3CCCc4cccnc43)c21)N1CCOCC1
Result block: 44 nM

Query block: Requested field: IC50. Item: COCCn1c2ccccc2c2ccnc(CN(CCCCN)[C@H]3CCCc4cccnc43)c21
Result block: 20 nM

Query block: Requested field: IC50. Item: CC(=O)NCCCCN(Cc1nccc2c1[nH]c1ccccc12)C1CCCc2cccnc21 (stereo not shown)
Result block: 1720 nM

Query block: Requested field: IC50. Item: c1cnc2c(c1)CCC[C@@H]2N(Cc1nccc2c1[nH]c1ccccc12)CC1CCCNC1 (stereo partly shown)
Result block: 3600 nM
